Sequence of the target: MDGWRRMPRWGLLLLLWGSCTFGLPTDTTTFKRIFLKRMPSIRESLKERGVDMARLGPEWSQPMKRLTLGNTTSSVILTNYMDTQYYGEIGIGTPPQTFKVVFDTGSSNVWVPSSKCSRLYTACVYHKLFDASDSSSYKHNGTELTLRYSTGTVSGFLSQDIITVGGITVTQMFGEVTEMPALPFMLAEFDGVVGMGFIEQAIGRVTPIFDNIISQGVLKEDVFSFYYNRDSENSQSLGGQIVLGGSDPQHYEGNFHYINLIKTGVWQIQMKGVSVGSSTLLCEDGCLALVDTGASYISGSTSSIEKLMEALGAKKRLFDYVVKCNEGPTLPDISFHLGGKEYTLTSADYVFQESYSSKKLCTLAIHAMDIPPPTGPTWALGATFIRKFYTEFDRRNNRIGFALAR
metric: IC50 (nM)

P: CCCCNC(=O)[C@@H](CC(O)[C@H](CC1CCCCC1)NC(=O)[C@H](Cc1cnc[nH]1)NC(=O)[C@@H](CSC(C)(C)C)Cc1ccccc1)C(C)C (some centres undefined)
Q: CCCCNC(=O)[C@@H](CC(O)[C@H](CC1CCCCC1)NC(=O)[C@H](Cc1c[nH]cn1)NC(=O)C(C)(OC(=O)C(C)(C)C)c1ccccc1)C(C)C (some centres undefined)
q: Which record would sort first by descending IC50, P or Q ? Answer by stating the label of the chosen item.
a: Q
